The origin of these recorded values is ChEMBL document CHEMBL3621132.

- Test system: P-glycoprotein
- protocol_details: Permeability of the compound assessed as human p-glycoprotein-mediated permeability ratio from basolateral to apical direction
- Type: ADME
- details: not told
recorded_metric: efflux ratio
Respond using a number only.

In plain terms, `Cc1ncc(Cl)c(N2CC[C@@H](C)N(C(=O)c3ccccc3-n3nccn3)CC2)n1` has a documented efflux ratio of 0.7

* * *

Record form. Attribute: pIC50. Fill in for each entry.
- tested_target: Orexin receptor type 2 (Homo sapiens) (UniProt O43614)
- protocol_details: Antagonist activity at human orexin 2 receptor expressed in CHO cells assessed as inhibition of orexin-A-induced intracellular calcium level after 60 mins by FLIPR assay
- details: 1 h
Remember, pIC50 is on a log scale: it is -log10 of the molar concentration.

In plain terms, `Cc1ccc(-n2nccn2)c(C(=O)N2CCN(c3ncc(C(F)(F)F)c(Cl)n3)CC[C@H]2C)c1` has a documented pIC50 of 6.85

In plain terms, `C[C@@H]1CCN(c2ncc(C(F)(F)F)c(Cl)n2)CCN1C(=O)c1ccccc1-n1nccn1` has a documented pIC50 of 7.06

In plain terms, `COc1nc(N2CC[C@@H](C)N(C(=O)c3cc(C)ccc3-n3nccn3)CC2)ncc1C` has a documented pIC50 of 7.51

In plain terms, `COc1nc(N2CC[C@@H](C)N(C(=O)c3ccccc3-n3nccn3)CC2)ncc1C(F)(F)F` has a documented pIC50 of 7.68

In plain terms, `Cc1nc(N2CC[C@@H](C)N(C(=O)c3ccccc3-n3nccn3)CC2)ncc1C(F)(F)F` has a documented pIC50 of 7.72

In plain terms, `Cc1ccc(-n2nccn2)c(C(=O)N2CCN(c3ncc(C)c(Cl)n3)CC[C@H]2C)c1` has a documented pIC50 of 7.55

In plain terms, `Cc1ncc(C(F)(F)F)c(N2CC[C@@H](C)N(C(=O)c3ccccc3-n3nccn3)CC2)n1` has a documented pIC50 of 7.06

In plain terms, `COc1nc(N2CC[C@@H](C)N(C(=O)c3cc(C)ccc3-n3nccn3)CC2)ncc1C(F)(F)F` has a documented pIC50 of 7.57

In plain terms, `C[C@@H]1CCN(c2nc(Cl)ncc2C(F)(F)F)CCN1C(=O)c1ccccc1-n1nccn1` has a documented pIC50 of 7.14

In plain terms, `Cc1ccc(-n2nccn2)c(C(=O)N2CCN(c3ncc(Cl)c(C)n3)CC[C@H]2C)c1` has a documented pIC50 of 7.70
